- Test system: E18 rat cortical neuron-glia co-culture
- Test method notes: myelination (MBP fiber length per Olig2+ nucleus), % of 1 µM DAPT response (DMSO = 0) (% of DAPT); higher = more myelination, active = 50 or more
- Measurement parameters: 1 µM; treatment time: 8 days (DIV5-DIV13)
Each entry below lists one item and its recorded myelination value.
# respond with the number and nothing more

Known myelination results, listed for orientation:
{"columns": ["Molecule", "Experimental readout", "Readout value"],
 "data": [
  ["CC(C(=O)O)c1cccc(C(=O)c2ccccc2)c1 (stereo not given)", "myelination", -5.15],
  ["C[C@@H]1C[C@H]2[C@@H]3CCC4=CC(=O)C=C[C@]4(C)[C@@]3(F)[C@@H](O)C[C@]2(C)[C@H]1C(=O)CO", "myelination", 7.66],
  ["Nc1nc(O)c2ncn(CCC(CO)CO)c2n1", "myelination", 3],
  ["NC(=O)N1c2ccccc2CC(=O)c2ccccc21 [Oxcarbazepine]", "myelination", 3.46]
]}

Below: the item to evaluate.
response.value for CCOC(=O)N1CCC(=C2c3ccc(Cl)cc3CCc3cccnc32)CC1 (field: myelination) = -5.25
